# study_system: Grb2 SH2 (UniProt P62993)
# Sequence (P62993 whole entry, looked up): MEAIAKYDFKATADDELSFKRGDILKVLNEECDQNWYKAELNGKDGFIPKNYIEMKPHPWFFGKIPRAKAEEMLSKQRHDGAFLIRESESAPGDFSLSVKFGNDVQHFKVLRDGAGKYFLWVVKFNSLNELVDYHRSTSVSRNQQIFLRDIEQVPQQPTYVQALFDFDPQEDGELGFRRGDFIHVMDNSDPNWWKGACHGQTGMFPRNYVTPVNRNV
# experiment_notes: SH2 binding enrichment of the phosphorylated peptide, bacterial display (enrichment ratio); higher = better substrate or ligand; peptides without Tyr show the background
Documented SH2 binding enrichment across a set of sequences
Reply: number alone, nothing else.

- seq: "KLIETYSSKNY [PLP1_Y50_F51S]"
  SH2 binding enrichment: 0.912

Form field: reported SH2 binding enrichment of LDLSYYPTSSS [EMD_Y182]
0.853

Form field: reported SH2 binding enrichment of MTFMFYRENLR [NLRP14_Y443_V441M_YF]
0.909

====

Documented phosphorylation enrichment across a set of sequences
# study_system: EPHB2 (UniProt P29323)
# Sequence (P29323 whole entry, looked up): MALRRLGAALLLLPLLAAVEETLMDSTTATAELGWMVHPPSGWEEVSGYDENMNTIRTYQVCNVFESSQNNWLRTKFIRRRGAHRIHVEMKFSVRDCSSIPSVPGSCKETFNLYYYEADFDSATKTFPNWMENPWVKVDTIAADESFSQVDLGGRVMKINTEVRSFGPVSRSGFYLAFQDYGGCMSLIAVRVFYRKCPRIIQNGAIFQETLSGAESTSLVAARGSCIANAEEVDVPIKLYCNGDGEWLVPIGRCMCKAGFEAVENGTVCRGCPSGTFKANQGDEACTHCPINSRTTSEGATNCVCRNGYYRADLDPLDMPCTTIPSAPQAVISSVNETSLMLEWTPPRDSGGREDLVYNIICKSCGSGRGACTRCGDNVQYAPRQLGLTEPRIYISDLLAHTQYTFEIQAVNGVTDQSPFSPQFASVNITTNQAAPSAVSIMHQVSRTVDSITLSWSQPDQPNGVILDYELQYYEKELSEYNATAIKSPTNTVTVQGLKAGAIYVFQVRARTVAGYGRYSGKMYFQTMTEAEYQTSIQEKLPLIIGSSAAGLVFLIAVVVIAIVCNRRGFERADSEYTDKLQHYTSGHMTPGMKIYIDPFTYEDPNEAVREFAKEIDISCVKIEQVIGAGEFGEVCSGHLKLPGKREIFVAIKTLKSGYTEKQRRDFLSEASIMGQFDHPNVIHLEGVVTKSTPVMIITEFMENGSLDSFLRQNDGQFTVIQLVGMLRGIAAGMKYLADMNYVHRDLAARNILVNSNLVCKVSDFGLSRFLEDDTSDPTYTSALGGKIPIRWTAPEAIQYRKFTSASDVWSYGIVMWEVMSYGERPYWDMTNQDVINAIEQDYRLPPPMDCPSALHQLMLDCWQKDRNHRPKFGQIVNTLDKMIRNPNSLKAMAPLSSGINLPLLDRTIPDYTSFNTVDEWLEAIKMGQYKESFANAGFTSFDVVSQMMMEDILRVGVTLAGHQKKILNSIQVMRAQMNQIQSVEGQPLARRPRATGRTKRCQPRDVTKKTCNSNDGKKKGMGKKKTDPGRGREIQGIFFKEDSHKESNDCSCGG
# experiment_notes: phosphorylation enrichment, bacterial display (enrichment ratio); higher = better substrate or ligand; peptides without Tyr show the background

- seq: "KSSDVYVSYDY [SORL1_Y136]"
  study_system: "EPHB2 (UniProt P29323)"
  phosphorylation enrichment: 1.92
- seq: "ACDALYPPGPP"
  study_system: "EPHB2 (UniProt P29323)"
  phosphorylation enrichment: 0.432
- seq: "LDMSQYFRLFN [CPT2_Y217]"
  study_system: "EPHB2 (UniProt P29323)"
  phosphorylation enrichment: 0.531
- seq: "VKPENYRRLDI [VHL_Y175]"
  study_system: "EPHB2 (UniProt P29323)"
  phosphorylation enrichment: 0.324
- seq: "YADGVYQALEE [DUOX2_Y70]"
  study_system: "EPHB2 (UniProt P29323)"
  phosphorylation enrichment: 2.82

Under EPHB2 (UniProt P29323): phosphorylation enrichment value of ACQGKYTPSGQ [ALDOA_Y343] ?
0.402

Under EPHB2 (UniProt P29323): phosphorylation enrichment value of FRVDCYKNFVA [FHL1_Y213_C209R_YF] ?
0.68

Under EPHB2 (UniProt P29323): phosphorylation enrichment value of STEPQYQPGEN [SRC_Y530] ?
0.566

Under EPHB2 (UniProt P29323): phosphorylation enrichment value of CSTIHYNYMCN [TP53_Y234_T230S] ?
0.542

Under EPHB2 (UniProt P29323): phosphorylation enrichment value of TLQIMYGCDVG [HLA-A_Y123_I119L] ?
0.606

Under EPHB2 (UniProt P29323): phosphorylation enrichment value of VFFGSYSCPFG [NKAP_Y104_R106C_YF] ?
0.786
